Target System: Adenosine receptor A1 (Homo sapiens)
Test Summary: Allosteric modulatory activity at human adenosine A1 receptor expressed in CHOk1 cells assessed as [125I]-ABA-receptor-G protein ternary complex remaining after 10 mins of radioligand dissociation at 50 uM by dissociation kinetic binding assay
Format: cell-based
Binary label based on Activity with cut-off 60%: below gives 1.0, not below gives 0.0.

Completed entries (count: 7):
>  <Smiles Structure>
CCOC(=O)c1c(N)sc2c1CCN(C(=O)[C@H](Cc1ccccc1)NC(=O)OC(C)(C)C)C2

>  <Category Label>
0.0

$$$$
>  <Smiles Structure>
Nc1sc2c(c1C(=O)NCc1ccccc1)CCN(Cc1ccccc1)C2

>  <Category Label>
1.0

$$$$
>  <Smiles Structure>
CN1CCc2c(sc(N)c2C(=O)NCc2ccccc2)C1

>  <Category Label>
0.0

$$$$
>  <Smiles Structure>
NNC(=O)c1c(N)sc2c1CCN(Cc1ccccc1)C2

>  <Category Label>
0.0

$$$$
>  <Smiles Structure>
N#Cc1c(N)sc2c1CCN(Cc1ccccc1)C2

>  <Category Label>
1.0

$$$$
>  <Smiles Structure>
CCOC(=O)c1c(N)sc2c1CCN(C(=O)[C@@H](Cc1ccc(Cl)cc1)N(C)C(=O)OC(C)(C)C)C2

>  <Category Label>
0.0

$$$$
>  <Smiles Structure>
CN1CCc2c(sc(N)c2C(=O)NNc2ccccc2)C1

>  <Category Label>
0.0

$$$$

Please find the next molecule below.
Is Activity strictly under 60% for the entry CCOC(=O)c1c(N)sc2c1CCN(Cc1ccccc1)C2 ?
1.0
